Biological target: T1, epitope tagged full length HPV16 E1 (EE16-E1) (human papillomavirus type 16, UniProt P03114 1-649)
T1 construct: range 1-649; also called EE-E1; HPV16 EE-E1
T1 sequence: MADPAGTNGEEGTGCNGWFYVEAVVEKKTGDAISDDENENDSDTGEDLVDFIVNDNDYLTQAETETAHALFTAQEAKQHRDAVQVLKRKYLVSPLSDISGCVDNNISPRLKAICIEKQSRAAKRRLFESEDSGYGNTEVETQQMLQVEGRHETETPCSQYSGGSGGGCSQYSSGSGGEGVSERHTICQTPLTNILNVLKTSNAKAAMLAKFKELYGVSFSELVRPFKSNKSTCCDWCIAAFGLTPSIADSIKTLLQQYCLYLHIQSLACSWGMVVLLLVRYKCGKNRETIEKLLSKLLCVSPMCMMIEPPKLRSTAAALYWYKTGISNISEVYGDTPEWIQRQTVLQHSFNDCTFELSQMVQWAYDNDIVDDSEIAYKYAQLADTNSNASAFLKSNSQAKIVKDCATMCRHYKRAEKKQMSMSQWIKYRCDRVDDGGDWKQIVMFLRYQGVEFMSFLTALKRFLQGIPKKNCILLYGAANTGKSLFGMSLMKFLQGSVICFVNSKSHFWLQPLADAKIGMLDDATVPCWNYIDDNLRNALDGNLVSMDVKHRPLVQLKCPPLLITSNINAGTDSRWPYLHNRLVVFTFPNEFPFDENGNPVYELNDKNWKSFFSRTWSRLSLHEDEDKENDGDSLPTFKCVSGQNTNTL
Assay: inhibition of HPV16 E1-E2 co-immunoprecipitation by peptide; competitor HPV16 E2
pIC50: −log10 of the molar value.
readoutType: pIC50

> print(dat)
                                     binder  readouttype  value
1  HIDYWKHMRLECAIYYKAREMGF (also called 23-mer) [E2N-WP23 (peptide of HPV16 E2 amino acids 29-51)]        pIC50   5.30
2  WKHMRLECAIYYKAR (also called 15-mer; wild-type peptide) [E2N-WP15 (peptide of HPV16 E2 residues 33-47)]        pIC50   5.12
